FYI, the data here is from ChEMBL document CHEMBL1201862.

- SYSTEM: Rac GTPase-activating protein 1 (Homo sapiens, UniProt Q9H0H5)
- EXPERIMENT: blockers of MgcRacGAP-driven Rac1 GTP hydrolysis – biochemical, ADP Hunter fluorescence, primary and confirmatory, confirmation (AID 624330)
- Assay type: functional
Active and inactive are the calls of the source.
METRIC_NAME: IC50

smiles_structure=CCOc1ccc(CN2CCN(S(=O)(=O)c3ccc(NC(C)=O)cc3)CC2)cc1 reported_measurement="221 µM (active)"
smiles_structure=CCOc1cc(/C=N/NC(=O)NN(C)c2ncc(C(F)(F)F)cc2Cl)ccc1O reported_measurement="88.4 µM (active)"
smiles_structure=CN(c1ccc(O)cc1)c1nc(-c2cccs2)cs1 reported_measurement="70.4 µM (active)"

* * *

- SYSTEM: ATP-dependent molecular chaperone HSP82 (Candida albicans (strain WO-1) (Yeast))
- Sequence (C4YTQ8 whole entry): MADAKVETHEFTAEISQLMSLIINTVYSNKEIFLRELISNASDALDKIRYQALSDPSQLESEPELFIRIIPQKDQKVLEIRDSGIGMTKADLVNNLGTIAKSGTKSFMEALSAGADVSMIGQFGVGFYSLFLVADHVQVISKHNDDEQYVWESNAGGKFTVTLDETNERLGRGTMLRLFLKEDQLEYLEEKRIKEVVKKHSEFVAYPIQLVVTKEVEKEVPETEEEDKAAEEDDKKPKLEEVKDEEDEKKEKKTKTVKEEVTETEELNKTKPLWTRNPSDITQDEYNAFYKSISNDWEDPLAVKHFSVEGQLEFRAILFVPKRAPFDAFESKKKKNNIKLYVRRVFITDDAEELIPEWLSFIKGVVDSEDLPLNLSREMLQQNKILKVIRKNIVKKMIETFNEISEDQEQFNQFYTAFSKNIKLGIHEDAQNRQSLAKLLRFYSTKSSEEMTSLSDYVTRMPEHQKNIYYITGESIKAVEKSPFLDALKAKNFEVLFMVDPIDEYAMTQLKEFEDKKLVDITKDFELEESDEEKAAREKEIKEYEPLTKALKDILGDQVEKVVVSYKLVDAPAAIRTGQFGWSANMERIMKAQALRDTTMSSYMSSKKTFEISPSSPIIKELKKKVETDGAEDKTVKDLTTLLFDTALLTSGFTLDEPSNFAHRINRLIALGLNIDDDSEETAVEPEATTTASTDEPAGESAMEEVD
- EXPERIMENT: steroid-induced GRE reporter decrease in yeast – S. cerevisiae, luminescence, Hsp90 inhibitor project, dose response (AID 2400);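 also: beta-galactosidase luminescence from glucocorticoid response element reporter as proxy for Hsp90 function; inhibitor potency where signal loss means Hsp90 inhibition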
- Format: functional, cell-based
The source made the active and inactive calls.
METRIC_NAME: EC50

compound=COCCn1c(=O)[nH]c(=O)c2cc(C(=O)c3cc(Cl)ccc3O)cnc21 reported_measurement="> 160 µM (inactive)"
compound=COC(=O)c1ccc(COc2ccc(/C=C(\C#N)c3nc4ccccc4[nH]3)cc2OC)o1 reported_measurement="> 160 µM (inactive)"
compound="Nc1nc(=O)[nH]cc1F [FLUCYTOSINE]" reported_measurement="> 160 µM (inactive)"
compound="CCCC(=O)NC(c1cccs1)c1cc(Cl)c2cccnc2c1O (centres undefined)" reported_measurement="> 150 µM (inactive)"

* * *

- SYSTEM: Glucose-6-phosphate 1-dehydrogenase (Homo sapiens, UniProt P11413)
- Sequence (P11413 whole entry): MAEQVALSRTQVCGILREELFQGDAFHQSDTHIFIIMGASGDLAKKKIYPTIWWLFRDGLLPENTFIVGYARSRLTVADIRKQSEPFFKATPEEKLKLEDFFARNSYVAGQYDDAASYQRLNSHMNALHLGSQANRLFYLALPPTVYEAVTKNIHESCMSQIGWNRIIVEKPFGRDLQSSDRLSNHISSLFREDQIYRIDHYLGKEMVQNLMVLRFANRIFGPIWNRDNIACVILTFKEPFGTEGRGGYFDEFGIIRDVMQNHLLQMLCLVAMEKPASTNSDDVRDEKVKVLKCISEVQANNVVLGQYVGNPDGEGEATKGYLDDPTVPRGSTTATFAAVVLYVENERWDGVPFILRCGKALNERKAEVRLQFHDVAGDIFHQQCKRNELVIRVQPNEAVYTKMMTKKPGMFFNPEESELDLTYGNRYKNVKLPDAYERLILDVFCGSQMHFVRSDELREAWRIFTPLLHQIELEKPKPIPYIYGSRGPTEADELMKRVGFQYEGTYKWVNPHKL
- EXPERIMENT: inhibition of Homo sapiens G6PD, dose series – biochemical, fluorescence, selectivity assay for P. falciparum G6PD inhibitor project, dose response (AID 504792)
- Assay type: functional
Calls of active or inactive are those of the source.
METRIC_NAME: IC50

molecule=CS(=O)(=O)c1ccc(N)c(SSc2cc(S(C)(=O)=O)ccc2N)c1 metric_name=IC50 reported_measurement="23.9 µM (inactive)"
molecule=COc1cc(/N=c2\ssnc2Cl)cc(OC)c1 metric_name=IC50 reported_measurement="> 80 µM (inactive)"
molecule=COc1ccc(C(=O)/C=C2\Sc3ccccc3N2C)cc1 metric_name=IC50 reported_measurement="> 80 µM (inactive)"
molecule=Cc1cc(SCC(=O)N/N=C/c2ccco2)nc2ccccc12 metric_name=IC50 reported_measurement="57.4 µM (inactive)"
molecule="O=C1C=CC2=C3c4cc(O)c(O)cc4CC3(O)COC2=C1O (stereo not given)" metric_name=IC50 reported_measurement="> 80 µM (inactive)"

* * *

Reported values of IC50 for individual entries
- SYSTEM: Glyceraldehyde-3-phosphate dehydrogenase (Homo sapiens, UniProt P04406)
- Sequence (P04406 whole entry): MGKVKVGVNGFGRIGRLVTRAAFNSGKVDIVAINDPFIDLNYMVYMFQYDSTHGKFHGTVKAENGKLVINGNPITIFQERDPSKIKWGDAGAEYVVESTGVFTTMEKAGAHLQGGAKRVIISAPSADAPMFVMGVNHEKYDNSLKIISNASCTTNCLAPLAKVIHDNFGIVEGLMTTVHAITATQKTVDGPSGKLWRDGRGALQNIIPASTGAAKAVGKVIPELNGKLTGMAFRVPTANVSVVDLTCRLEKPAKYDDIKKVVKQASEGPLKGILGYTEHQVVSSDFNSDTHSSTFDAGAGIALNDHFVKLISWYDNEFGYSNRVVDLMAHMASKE
METRIC_NAME: IC50

molecule="O=C(O)C1Nc2ccccc2C2C=CCC12 (stereo not given)" reported_measurement="> 100 µM (not active)"
molecule=O=C(CCC1CCCC1)Nc1nnc[nH]1 reported_measurement="> 10 µM (inconclusive)"
molecule="Cc1cc([N+](=O)[O-])cc2c1NC(C(=O)O)C1CC=CC21 (stereo not given)" reported_measurement="> 100 µM (not active)"
molecule=CCOc1ccc(-c2cc(C(=O)O)[nH]n2)cc1 reported_measurement="> 100 µM (not active)"
molecule=CN(C)C(=O)c1cc(-c2ccc(Cl)cc2Cl)n[nH]1 reported_measurement="> 100 µM (not active)"

* * *

- SYSTEM: Estrogen receptor beta (Homo sapiens)
- EXPERIMENT: blockers of SRC-3 recruitment to ERβ – biochemical, ELISA, streptavidin-HRP readout, orthogonal assay, confirmation (AID 1060)
# IC50 per entry
METRIC_NAME: IC50

smiles_structure=CCCOC(=O)c1cc(-c2ccc(/C=C3/C(=O)N(C)C(=O)C(C#N)=C3C)o2)ccc1Cl metric_name=IC50 reported_measurement="10.3 µM (not active)"
smiles_structure=N#Cc1ccccc1N1CCN(C(=O)CCCCCn2c(=S)[nH]c3ccccc3c2=O)CC1 metric_name=IC50 reported_measurement="0.957 µM (not active)"
smiles_structure=NC1=C(c2nc3ccccc3[nH]2)C(=O)CN1c1ccc(CC(=O)O)cc1 metric_name=IC50 reported_measurement="< 0.023 µM (not active)"
smiles_structure=O=C(c1cccc(F)c1)N1CCN(C(=O)c2cc3ncc(Br)cn3n2)CC1 metric_name=IC50 reported_measurement="1.16 µM (not active)"

* * *

- SYSTEM: Short transient receptor potential channel 4 (Mus musculus)
- Sequence (Q9QUQ5 whole entry): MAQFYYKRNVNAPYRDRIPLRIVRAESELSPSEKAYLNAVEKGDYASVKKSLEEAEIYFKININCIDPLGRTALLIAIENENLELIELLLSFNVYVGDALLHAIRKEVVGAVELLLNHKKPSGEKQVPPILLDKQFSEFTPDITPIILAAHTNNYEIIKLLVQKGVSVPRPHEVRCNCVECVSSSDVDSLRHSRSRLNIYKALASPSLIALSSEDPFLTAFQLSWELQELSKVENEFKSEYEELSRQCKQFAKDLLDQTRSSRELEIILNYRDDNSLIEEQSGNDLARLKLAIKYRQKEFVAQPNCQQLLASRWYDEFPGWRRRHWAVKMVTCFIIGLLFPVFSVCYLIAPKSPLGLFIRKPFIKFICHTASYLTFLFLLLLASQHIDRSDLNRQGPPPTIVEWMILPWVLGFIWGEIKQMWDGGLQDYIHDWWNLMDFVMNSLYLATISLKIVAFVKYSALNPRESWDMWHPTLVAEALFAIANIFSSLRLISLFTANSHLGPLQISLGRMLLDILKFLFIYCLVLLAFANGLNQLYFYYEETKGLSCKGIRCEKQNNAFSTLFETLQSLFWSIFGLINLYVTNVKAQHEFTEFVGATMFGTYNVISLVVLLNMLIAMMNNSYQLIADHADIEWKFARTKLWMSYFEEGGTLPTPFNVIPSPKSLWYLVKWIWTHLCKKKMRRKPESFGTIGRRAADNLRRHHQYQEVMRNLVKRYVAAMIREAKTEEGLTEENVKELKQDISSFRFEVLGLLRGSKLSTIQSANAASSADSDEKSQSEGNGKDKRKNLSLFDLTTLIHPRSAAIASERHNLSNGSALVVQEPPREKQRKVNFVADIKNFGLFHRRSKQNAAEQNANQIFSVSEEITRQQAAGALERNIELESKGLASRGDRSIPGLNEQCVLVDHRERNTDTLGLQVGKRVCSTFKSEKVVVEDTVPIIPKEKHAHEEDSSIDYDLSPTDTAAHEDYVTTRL
- EXPERIMENT: calcium entry via TRPC4 opening agents – cell-based, HEK293 TRPC4/mu-opioid, Fluo-4 calcium, dose response (AID 434937)
- Assay type: functional
Active and inactive are the calls of the source.
METRIC_NAME: EC50

compound=CCN(CC)CCCNC(=O)c1cc2c(-c3ccc(Cl)cc3)nn(C)c2s1 system="Short transient receptor potential channel 4 (Mus musculus)" metric_name=EC50 reported_measurement="335 nM (active)"
compound=CCOc1ccccc1OCC(=O)Nc1cc(S(=O)(=O)N2CCCCC2)ccc1N1CCN(CC)CC1 system="Short transient receptor potential channel 4 (Mus musculus)" metric_name=EC50 reported_measurement="4220 nM (active)"
compound="CN(C)C(CNC(=O)C1CCN(S(=O)(=O)c2cccc(C(F)(F)F)c2)CC1)c1ccccc1 (stereo unspecified)" system="Short transient receptor potential channel 4 (Mus musculus)" metric_name=EC50 reported_measurement="376 nM (active)"
compound="CN1C2C=C(N(CCc3ccccc3)C(=O)c3ccc(Cl)cc3)CC1CC2 (stereo unspecified)" system="Short transient receptor potential channel 4 (Mus musculus)" metric_name=EC50 reported_measurement="531 nM (active)"
compound=COc1cc(OC)c(CN2CCC(Cc3ccccc3)CC2)cc1Br system="Short transient receptor potential channel 4 (Mus musculus)" metric_name=EC50 reported_measurement="2660 nM (active)"
compound=COc1ccc2c(Cl)c(-c3nnc(SCC(=O)c4ccccc4)n3C)sc2c1 system="Short transient receptor potential channel 4 (Mus musculus)" metric_name=EC50 reported_measurement="668 nM (active)"

* * *

- SYSTEM: Protein RecA (Mycobacterium tuberculosis)
- EXPERIMENT: Fluorescence Cell-Free Homogeneous Dose Retest to Identify Inhibitors of RecA-Intein Splicing Activity. [Related pubchem assays (depositor defined):AID2097, AID2223, AID489010, AID492950]
- Format: functional
Calls of active or inactive are those of the source.
METRIC_NAME: EC50

compound=CCCCNC(=O)c1c(N)n(Cc2ccc3c(c2)OCO3)c2nc3ccccc3nc12 system="Protein RecA (Mycobacterium tuberculosis)" metric_name=EC50 reported_measurement="56.3 µM (active)"
compound=C/C(CC(=O)Nc1cc(C)ccn1)=N\NC(=O)c1cccc(C)c1 system="Protein RecA (Mycobacterium tuberculosis)" metric_name=EC50 reported_measurement="4.04 µM (active)"
compound="CC(=O)N(C1CC(C)C(C#N)(C#N)C1(C#N)C#N)N(C)C (centres undefined)" system="Protein RecA (Mycobacterium tuberculosis)" metric_name=EC50 reported_measurement="3.17 µM (active)"
compound=CCOC(=O)c1nn(-c2ccc(OC)cc2)c(=O)c2c(N)scc12 system="Protein RecA (Mycobacterium tuberculosis)" metric_name=EC50 reported_measurement="1.59 µM (active)"
compound=Cc1ccc(C(=O)OCn2ncc(Cl)c(Cl)c2=O)cc1 system="Protein RecA (Mycobacterium tuberculosis)" metric_name=EC50 reported_measurement="0.924 µM (active)"
compound=COc1cc(/C=C2\C(=O)N(c3ccc(NC(C)=O)cc3)N=C2c2ccccc2)ccc1O system="Protein RecA (Mycobacterium tuberculosis)" metric_name=EC50 reported_measurement="> 380 µM (inconclusive)"
compound=Cc1[nH]c2ccccc2c1C(C#N)(C#N)C1C(=O)c2ccccc2C1=O system="Protein RecA (Mycobacterium tuberculosis)" metric_name=EC50 reported_measurement="0.297 µM (active)"
compound=COc1ccc(OC)c(NC(=O)Nc2ccc(O)c3ccccc23)c1 system="Protein RecA (Mycobacterium tuberculosis)" metric_name=EC50 reported_measurement="0.152 µM (active)"
compound=O=C(CCl)Nc1cc(S(=O)(=O)N2CCCCCC2)ccc1Cl system="Protein RecA (Mycobacterium tuberculosis)" metric_name=EC50 reported_measurement="2.03 µM (active)"

* * *

- SYSTEM: Fatty acid synthase (Homo sapiens, UniProt P49327)
- Sequence (P49327 whole entry): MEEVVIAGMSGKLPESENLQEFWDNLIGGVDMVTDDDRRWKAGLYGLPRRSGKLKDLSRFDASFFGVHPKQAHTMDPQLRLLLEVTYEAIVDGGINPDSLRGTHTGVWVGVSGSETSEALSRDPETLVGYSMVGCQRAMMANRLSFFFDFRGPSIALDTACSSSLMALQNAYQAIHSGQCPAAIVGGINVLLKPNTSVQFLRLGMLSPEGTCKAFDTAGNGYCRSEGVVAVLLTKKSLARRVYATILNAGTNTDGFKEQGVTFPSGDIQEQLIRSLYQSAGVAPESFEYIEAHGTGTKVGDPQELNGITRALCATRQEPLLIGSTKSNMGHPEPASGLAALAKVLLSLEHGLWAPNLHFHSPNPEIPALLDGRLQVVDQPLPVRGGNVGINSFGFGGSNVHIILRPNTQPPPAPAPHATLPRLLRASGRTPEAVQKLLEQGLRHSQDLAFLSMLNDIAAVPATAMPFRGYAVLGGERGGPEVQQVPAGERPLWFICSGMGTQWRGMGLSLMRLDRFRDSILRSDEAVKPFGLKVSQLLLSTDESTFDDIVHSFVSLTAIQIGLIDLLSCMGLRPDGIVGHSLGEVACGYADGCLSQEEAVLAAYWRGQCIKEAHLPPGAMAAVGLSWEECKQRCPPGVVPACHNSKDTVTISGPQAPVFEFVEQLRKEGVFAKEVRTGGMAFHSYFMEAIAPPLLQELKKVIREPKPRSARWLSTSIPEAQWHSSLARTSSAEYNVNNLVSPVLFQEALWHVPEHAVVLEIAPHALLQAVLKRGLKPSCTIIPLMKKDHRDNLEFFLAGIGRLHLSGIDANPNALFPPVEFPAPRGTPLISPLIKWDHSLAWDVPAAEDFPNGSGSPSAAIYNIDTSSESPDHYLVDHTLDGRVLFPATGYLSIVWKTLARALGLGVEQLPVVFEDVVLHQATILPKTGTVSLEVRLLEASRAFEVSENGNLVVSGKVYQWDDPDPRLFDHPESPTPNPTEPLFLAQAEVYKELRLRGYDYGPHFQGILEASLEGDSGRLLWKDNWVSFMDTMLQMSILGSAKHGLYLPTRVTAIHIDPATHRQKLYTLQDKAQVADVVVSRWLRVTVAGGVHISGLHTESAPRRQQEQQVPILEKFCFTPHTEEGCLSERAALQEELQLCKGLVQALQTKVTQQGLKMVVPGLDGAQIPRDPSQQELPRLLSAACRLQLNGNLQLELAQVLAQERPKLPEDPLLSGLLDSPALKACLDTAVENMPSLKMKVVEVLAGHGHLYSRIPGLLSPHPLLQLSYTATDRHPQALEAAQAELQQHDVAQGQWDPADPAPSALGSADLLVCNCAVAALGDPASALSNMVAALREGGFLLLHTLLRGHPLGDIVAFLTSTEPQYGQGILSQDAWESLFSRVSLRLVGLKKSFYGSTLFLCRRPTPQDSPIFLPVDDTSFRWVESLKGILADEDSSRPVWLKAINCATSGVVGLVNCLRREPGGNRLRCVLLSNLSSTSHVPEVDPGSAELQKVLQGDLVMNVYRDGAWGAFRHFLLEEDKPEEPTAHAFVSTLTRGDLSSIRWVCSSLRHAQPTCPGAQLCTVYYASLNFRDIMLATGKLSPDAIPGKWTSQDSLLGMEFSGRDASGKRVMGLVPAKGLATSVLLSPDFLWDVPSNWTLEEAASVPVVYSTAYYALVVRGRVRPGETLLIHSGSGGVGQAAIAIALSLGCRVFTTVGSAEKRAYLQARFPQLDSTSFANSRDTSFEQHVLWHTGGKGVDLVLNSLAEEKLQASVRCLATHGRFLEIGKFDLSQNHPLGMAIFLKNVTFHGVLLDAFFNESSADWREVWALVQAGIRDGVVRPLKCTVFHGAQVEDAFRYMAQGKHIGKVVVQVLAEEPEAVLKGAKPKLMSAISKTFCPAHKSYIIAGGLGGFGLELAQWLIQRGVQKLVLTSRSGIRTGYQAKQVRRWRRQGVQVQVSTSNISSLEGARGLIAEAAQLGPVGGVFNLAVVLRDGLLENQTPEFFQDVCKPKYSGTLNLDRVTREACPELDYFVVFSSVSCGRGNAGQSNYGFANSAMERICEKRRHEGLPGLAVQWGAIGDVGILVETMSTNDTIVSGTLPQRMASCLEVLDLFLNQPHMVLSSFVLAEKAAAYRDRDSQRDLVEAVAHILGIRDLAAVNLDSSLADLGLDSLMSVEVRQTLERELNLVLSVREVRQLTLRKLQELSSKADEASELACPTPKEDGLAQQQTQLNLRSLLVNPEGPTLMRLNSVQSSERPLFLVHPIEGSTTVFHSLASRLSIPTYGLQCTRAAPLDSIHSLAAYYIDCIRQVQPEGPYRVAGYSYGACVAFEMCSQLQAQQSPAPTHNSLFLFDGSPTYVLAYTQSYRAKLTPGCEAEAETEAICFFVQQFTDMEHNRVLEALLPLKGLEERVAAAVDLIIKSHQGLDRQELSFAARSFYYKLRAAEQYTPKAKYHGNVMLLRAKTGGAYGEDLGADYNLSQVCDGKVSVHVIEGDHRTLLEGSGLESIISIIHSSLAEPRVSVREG
- EXPERIMENT: inhibition of human FAS-TE enzyme activity – biochemical, endpoint fluorescence intensity, uHTS hits, dose response (AID 624327);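 also: fluorescence from hydrolysis of an O-methyl fluorescein acyl ester substrate by the enzyme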
- Format: functional
Activity calls are given as the source filed them.
Classes used: active, inactive

compound="COC(=O)C(CCCCNC(=O)c1ccc([N+](=O)[O-])cc1)NC(=O)c1ccc([N+](=O)[O-])cc1 (stereo unspecified)" system="Fatty acid synthase (Homo sapiens, UniProt P49327)" label_value=inactive
compound=Cc1nn(Cc2ccc([N+](=O)[O-])cc2)c(=O)n1N(C)c1ncc(C(F)(F)F)cc1Cl system="Fatty acid synthase (Homo sapiens, UniProt P49327)" label_value=active
compound=O=C(COc1ccc(Cl)cc1)Nc1ccc(C(=O)O)cc1NC(=O)COc1ccc(Cl)cc1 system="Fatty acid synthase (Homo sapiens, UniProt P49327)" label_value=active
compound="CC(=O)N(C1CC(C)C(C#N)(C#N)C1(C#N)C#N)N(C)C (stereo unspecified)" system="Fatty acid synthase (Homo sapiens, UniProt P49327)" label_value=active
compound="CN1C(C(=O)NCc2cccc(Br)c2)CC2Cn3c(nc4cc(Cl)c(Cl)cc43)C21 (stereo unspecified)" system="Fatty acid synthase (Homo sapiens, UniProt P49327)" label_value=active
compound=COC(=O)N1C(=O)[C@](Cc2ccccc2)(c2ccccc2)N1C(=O)OC system="Fatty acid synthase (Homo sapiens, UniProt P49327)" label_value=active
